I'd be grateful if you could share measured pKi for these entries.
Measured Target: LSD1_(172-833), lysine-specific demethylase 1 (human, UniProt O60341-1 172-833)
Protocol Details: enzyme inhibition kinetics (HRP-coupled fluorescence demethylation assay); 25 nM LSD1, substrate H3K4me1_(1-21), 25 mM Tris, 50 mM NaCl, 0.1 mg/mL BSA, pH 8, 1% DMSO; Ki by global fit of competitive inhibition for 1, 11, 24, 28, 31, 33, 34, else from IC50 by Cheng-Prusoff (substrate 20 μM)
Experimental Context: both partners purified
Bridge positions count the residues as written; N and C are the ends. Square brackets hold non-standard residues; d marks the D form. Ends that are not written are not given here. Lys(N3) = [N-]=[N+]=NCCCC[C@H](N)C(=O)O; Cit = NC(=O)NCCC[C@H](N)C(=O)O; Pra = C#CC[C@H](N)C(=O)O
Numbers only, as −log10 of the molar value.

For orientation, consider the following solved cases.
AREMQKA[Cit]KST-NH2 (lactam 3-6) [lactam 34 (Arg8Cit-substituted analogue of peptide 28)]	5.10
AR[Pra]MQ[Lys(N3)]ARKST-NH2 (triazole 3-6) [triazole 36 (triazole-bridged H3_(1-11) K4M, propargylglycine at 3, azidolysine at 6)]	4.52

We next turn to a different binder, shown below.
[in] State the recorded pKi for this entry: A[Cit]EMQKARKST-NH2 (lactam 3-6) [lactam 33 (Arg2Cit-substituted analogue of peptide 28)]
[out] 5.38
